These measurements were taken from paper PMC8621605.

Listed here are molecules together with their documented inhibition in vivo at 20 mg/kg.
Tested on: Histamine-Induced Inflammation
testDescription: Histamine-induced mouse paw edema model
Format: in vivo, outbred albino male mice
testConditions: Mus musculus, ip; anti-inflammatory activity relative to control group; 20 mg/kg i.p.; read-out: Histamine-Induced Inflammation AIA, %
Answer with a number only, understood to be in %.

Past entries and their recorded results:
molecule	metric	unitAbbrev	measured
Cc1c(-c2cc3cccc4c3c(n2)-c2ccccc2C4=O)cnn1C [3k]	inhibition in vivo at 20 mg/kg	%	34
COc1ccc2c(c1)c(CC(=O)O)c(C)n2C(=O)c1ccc(Cl)cc1 [Indomethacin, indomethacin, reference compound]	inhibition in vivo at 20 mg/kg	%	48
O=C1c2ccccc2-c2nc(-c3ccccc3)cc3cccc1c23 [3a, 2-phenyl-7H-dibenzo[de,h]quinolin-7-one]	inhibition in vivo at 20 mg/kg	%	60
CC(=O)c1ccc(C(=O)c2c(-c3ccccc3)nc3c4c(cccc24)C(=O)c2ccccc2-3)cc1 [2b]	inhibition in vivo at 20 mg/kg	%	33

QUERY: If you can, please state the reported inhibition in vivo at 20 mg/kg value of CC(C)(O)c1cc2cccc3c2c(n1)-c1ccccc1C3=O [3j] .
RESULT: 16

QUERY: Another molecule to look at: CN(C)c1ccc(-c2cc3cccc4c3c(n2)-c2ccccc2C4=O)cc1 [3i]
RESULT: 34

----------
Tested on: Concanavalin A-Induced Inflammation
testDescription: Concanavalin A-induced mouse paw edema model
Format: in vivo, C57BL/6 female mice
testConditions: inflammatory edema index; 20 mg/kg i.p. twice, 24 h and 1 h before phlogogen; mean ± SEM
metric: Concanavalin A-Induced Inflammation IEI, % (%)
Answer with a number only, understood to be in %.

Past entries and their recorded results:
compound	measured
Cc1c(-c2cc3cccc4c3c(n2)-c2ccccc2C4=O)cnn1C	31.1
CC(=O)c1ccc(-c2cc3cccc4c3c(n2)-c2ccccc2C4=O)cc1	18.0
CCCCCc1cc2cccc3c2c(n1)-c1ccccc1C3=O	19.7

QUERY: If you can, please state the reported Concanavalin A-Induced Inflammation IEI, % value of COc1ccc2c(c1)c(CC(=O)O)c(C)n2C(=O)c1ccc(Cl)cc1 [Indomethacin, indomethacin, reference compound] .
RESULT: 23.4

QUERY: Another compound to look at: `COc1ccc(C(=O)c2c(-c3ccccc3)nc3c4c(cccc24)C(=O)c2ccccc2-3)cc1`
RESULT: 27.9

QUERY: Another compound to look at: `CC(=O)c1ccc(C(=O)c2c(-c3ccccc3)nc3c4c(cccc24)C(=O)c2ccccc2-3)cc1`
RESULT: 21.4

QUERY: Another compound to look at: `CC(C)(O)c1cc2cccc3c2c(n1)-c1ccccc1C3=O`
RESULT: 22.1

QUERY: Another compound to look at: `CN(C)c1ccc(-c2cc3cccc4c3c(n2)-c2ccccc2C4=O)cc1`
RESULT: 18.5

QUERY: Another compound to look at: `COc1ccc(-c2cc3cccc4c3c(n2)-c2ccccc2C4=O)cc1`
RESULT: 15.2

QUERY: Another compound to look at: O=C1c2ccccc2-c2nc(-c3ccccc3)cc3cccc1c23 [3a, 2-phenyl-7H-dibenzo[de,h]quinolin-7-one]
RESULT: 17.8

----------
metric: melting point

molecule	melting point
COc1ccc(C(=O)c2c(-c3ccccc3)nc3c4c(cccc24)C(=O)c2ccccc2-3)cc1	279 to 280 °C
CC(=O)c1ccc(-c2cc3cccc4c3c(n2)-c2ccccc2C4=O)cc1	324 to 325 °C
COc1ccc(-c2cc3cccc4c3c(n2)-c2ccccc2C4=O)cc1	203 to 204 °C

QUERY: If you can, please state the reported melting point value of O=C1c2ccccc2-c2nc(-c3ccccc3)cc3cccc1c23 [3a, 2-phenyl-7H-dibenzo[de,h]quinolin-7-one] .
RESULT: 207 to 208 °C

QUERY: Another molecule to look at: `CC(=O)c1ccc(C(=O)c2c(-c3ccccc3)nc3c4c(cccc24)C(=O)c2ccccc2-3)cc1`
RESULT: 312 to 313 °C

QUERY: Another molecule to look at: `O=C1c2ccccc2-c2nc(-c3ccc([N+](=O)[O-])cc3)cc3cccc1c23`
RESULT: 295 to 296 °C

QUERY: Another molecule to look at: `COc1ccc(C(=O)c2c(C)nc3c4c(cccc24)C(=O)c2ccccc2-3)cc1`
RESULT: 232.5 to 233.5 °C

----------
Listed here are compounds together with their documented inhibition in vivo at 20 mg/kg.
System: Concanavalin A-Induced Inflammation
testDescription: Concanavalin A-induced mouse paw edema model
Type: in vivo, C57BL/6 female mice
testConditions: Mus musculus, ip; anti-inflammatory activity relative to control group; 20 mg/kg i.p. twice; read-out: Concanavalin A-Induced Inflammation AIA, %
Answer with a number only, understood to be in %.

compound	measuredOn	unitAbbrev	inhibition in vivo at 20 mg/kg
CC(=O)c1ccc(C(=O)c2c(-c3ccccc3)nc3c4c(cccc24)C(=O)c2ccccc2-3)cc1	Concanavalin A-Induced Inflammation	%	43
Cc1c(-c2cc3cccc4c3c(n2)-c2ccccc2C4=O)cnn1C	Concanavalin A-Induced Inflammation	%	18
COc1ccc(C(=O)c2c(-c3ccccc3)nc3c4c(cccc24)C(=O)c2ccccc2-3)cc1	Concanavalin A-Induced Inflammation	%	26
CN(C)c1ccc(-c2cc3cccc4c3c(n2)-c2ccccc2C4=O)cc1	Concanavalin A-Induced Inflammation	%	51

// moving on: another record for inhibition in vivo at 20 mg/kg
QUERY: If you can, please state the reported inhibition in vivo at 20 mg/kg value of COc1ccc2c(c1)c(CC(=O)O)c(C)n2C(=O)c1ccc(Cl)cc1 [Indomethacin, indomethacin, reference compound] .
RESULT: 38

----------
Listed here are compounds together with their documented inhibition in vivo at 20 mg/kg.
Tested on: Histamine-Induced Inflammation
testDescription: Histamine-induced mouse paw edema model
Format: in vivo, outbred albino male mice
testConditions: Mus musculus, ip; anti-inflammatory activity relative to control group; 20 mg/kg i.p.; read-out: Histamine-Induced Inflammation AIA, %
Excerpt: The anti-inflammatory activity of the synthesized compounds was investigated in vivo in comparison with indomethacin on two models of local inflammation induced by histamine or concanavalin A injection. The last one was used as the inductor of allergic-like inflammation, owing to its immunogenic activity. The results were expressed as values of inflammatory edema indexes (IEI) and percentages of anti-inflammatory activity (AIA) relative to the control group (Table 1). […]
Answer with a number only, understood to be in %.

Past entries and their recorded results:
1. COc1ccc(C(=O)c2c(-c3ccccc3)nc3c4c(cccc24)C(=O)c2ccccc2-3)cc1 34
2. CC(=O)c1ccc(-c2cc3cccc4c3c(n2)-c2ccccc2C4=O)cc1 36
3. CCCCCc1cc2cccc3c2c(n1)-c1ccccc1C3=O 30

// moving on: another record for inhibition in vivo at 20 mg/kg
QUERY: If you can, please state the reported inhibition in vivo at 20 mg/kg value of `COc1ccc(-c2cc3cccc4c3c(n2)-c2ccccc2C4=O)cc1` .
RESULT: 42
